The values you see were collected from patent US10280150B2.

Parameter pIC50: see the listing below.
molecular target: IDH1-R132C recombinant protein (Homo sapiens (Human), UniProt O75874, R132C); experiment: IDH1-R132C enzymatic assay (inhibition of NADPH consumption, diaphorase/resazurin readout); conditions: read-out: Enzyme IDH1 R132C IC50 (Range)
Sequence (O75874 whole entry R132C): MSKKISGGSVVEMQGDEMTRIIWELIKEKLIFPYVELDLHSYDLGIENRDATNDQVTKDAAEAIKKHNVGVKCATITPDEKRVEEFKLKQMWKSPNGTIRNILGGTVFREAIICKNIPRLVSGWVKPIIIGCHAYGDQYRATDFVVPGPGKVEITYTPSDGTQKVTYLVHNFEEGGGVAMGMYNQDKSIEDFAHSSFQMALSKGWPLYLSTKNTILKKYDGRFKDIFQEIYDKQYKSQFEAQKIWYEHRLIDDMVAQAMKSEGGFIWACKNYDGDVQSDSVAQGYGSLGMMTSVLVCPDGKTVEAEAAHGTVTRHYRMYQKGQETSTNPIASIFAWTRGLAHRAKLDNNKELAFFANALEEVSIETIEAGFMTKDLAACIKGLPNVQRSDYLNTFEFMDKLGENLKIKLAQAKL
pIC50: −log10 of the molar value.
measurement_kind: pIC50

[[record]]
molecule = "C[C@@H](Nc1nccc(N2CCOC2=O)n1)c1cc2cc(Cl)ccc2[nH]c1=O [Compound I-45]"
recorded_measurement = "5.00 to 6.00"

[[record]]
molecule = "CC(C)CN(c1ccnc(N[C@@H](C)c2cc3cc(Cl)ccc3[nH]c2=O)n1)S(C)(=O)=O [Compound I-8]"
recorded_measurement = "> 7.00"

[[record]]
molecule = "CC(C)CS(=O)(=O)N(C)c1ccnc(N[C@@H](C)c2cc3cc(Cl)ccc3[nH]c2=O)n1 [Compound I-15]"
recorded_measurement = "6.00 to 7.00"

[[record]]
molecule = "COc1nc(NC(C)c2cc3cc(Cl)c(OCC4CC(F)(F)C4)cc3[nH]c2=O)ncc1C#N (centres unmarked) [Compound I-172]"
recorded_measurement = "6.00 to 7.00"

[[record]]
molecule = "O=C1OCCN1c1ccnc(NC2(c3cc4cc(Cl)ccc4[nH]c3=O)CC2)n1 [Compound I-168]"
recorded_measurement = "5.00 to 6.00"

[[record]]
molecule = "COc1nc(N[C@@H](C)c2cc3cc(Cl)c(OCc4ccccn4)cc3[nH]c2=O)ncc1C#N [Compound I-151]"
recorded_measurement = "> 7.00"

[[record]]
molecule = "C[C@H](Nc1nccc(-c2cnsc2)n1)c1cc2cc(Cl)ccc2[nH]c1=O [Compound I-88]"
recorded_measurement = "6.00 to 7.00"

[[record]]
molecule = "C[C@H](Nc1nccc([S@+](C)[O-])n1)c1cc2cc(Cl)ccc2[nH]c1=O [Compound I-113]"
recorded_measurement = "6.00 to 7.00"

[[record]]
molecule = "CC(C)[C@H]1COCCN1c1ccnc(N[C@@H](C)c2cc3cc(Cl)ccc3[nH]c2=O)n1 [Compound I-104]"
recorded_measurement = "5.00 to 6.00"

[[record]]
molecule = "C[C@H](Nc1nccc(NC(=O)C2CC2)n1)c1cc2cc(Cl)c(F)cc2[nH]c1=O [Compound I-180]"
recorded_measurement = "6.00 to 7.00"

[[record]]
molecule = "COc1nc(N[C@@H](C)c2cc3cc(Cl)c(OC(C)C)cc3[nH]c2=O)ncc1C#N [Compound I-175]"
recorded_measurement = "> 7.00"

[[record]]
molecule = "C[C@H](Nc1nccc(NC(C)(C)C)n1)c1cc2cc(Cl)ccc2[nH]c1=O [Compound I-7]"
recorded_measurement = "5.00 to 6.00"

[[record]]
molecule = "COc1nc(N[C@@H](C)c2cc3cc(Cl)c(OCC4CC4)cc3[nH]c2=O)ncc1C#N [Compound I-159]"
recorded_measurement = "> 7.00"

[[record]]
molecule = "COc1ccncc1-c1ccnc(N[C@@H](C)c2cc3cc(Cl)ccc3[nH]c2=O)n1 [Compound I-99]"
recorded_measurement = "6.00 to 7.00"

[[record]]
molecule = "C[C@H](Nc1nccc(-n2nnnc2C2CC2)n1)c1cc2cc(Cl)cnc2[nH]c1=O [Compound I-184]"
recorded_measurement = "6.00 to 7.00"

[[record]]
molecule = "COc1ncccc1-c1ccnc(N[C@@H](C)c2cc3cc(Cl)ccc3[nH]c2=O)n1 [Compound I-93]"
recorded_measurement = "< 5.00"

[[record]]
molecule = "COc1ccccc1-c1ccnc(N[C@@H](C)c2cc3cc(Cl)ccc3[nH]c2=O)n1 [Compound I-102]"
recorded_measurement = "5.00 to 6.00"

[[record]]
molecule = "CC(=O)Nc1ccnc(N[C@@H](C)c2cc3cc(Cl)cnc3[nH]c2=O)n1 [Compound I-182]"
recorded_measurement = "6.00 to 7.00"

[[record]]
molecule = "COc1cc2[nH]c(=O)c([C@H](C)Nc3ncc(C#N)c(OC)n3)cc2cc1Cl [Compound I-143]"
recorded_measurement = "> 7.00"

[[record]]
molecule = "C[C@H](Nc1nccc([S@@+](C)[O-])n1)c1cc2cc(Cl)ccc2[nH]c1=O [Compound I-112]"
recorded_measurement = "5.00 to 6.00"

[[record]]
molecule = "CC(C)N(c1ccnc(N[C@@H](C)c2cc3cc(Cl)ccc3[nH]c2=O)n1)S(C)(=O)=O [Compound I-10]"
recorded_measurement = "6.00 to 7.00"

[[record]]
molecule = "CC(Nc1nccc(N2CCOC2=O)n1)c1cc2cc(Cl)ccc2[nH]c1=O (centres unmarked) [Compound I-48]"
recorded_measurement = "6.00 to 7.00"

[[record]]
molecule = "COc1nc(N[C@@H](C)c2cc3cc(Cl)ccc3n(C)c2=O)ncc1C#N [Compound I-41]"
recorded_measurement = "5.00 to 6.00"

